Just for reference, patent US20220000841A1 is where these values come from.

MEASUREMENT TARGET: IMP-1 (Serratia marcescens)
Sequence (P52699 19-246, looked up, species assumed): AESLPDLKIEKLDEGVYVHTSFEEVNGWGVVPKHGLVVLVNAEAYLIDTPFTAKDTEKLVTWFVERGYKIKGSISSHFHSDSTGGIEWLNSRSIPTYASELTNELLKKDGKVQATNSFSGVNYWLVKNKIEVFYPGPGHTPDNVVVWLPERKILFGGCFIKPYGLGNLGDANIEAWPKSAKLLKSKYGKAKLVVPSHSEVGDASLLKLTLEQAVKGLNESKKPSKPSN
PROTOCOL DESCRIPTION: Enzymatic assay for determination of inhibition constants, reporter substrate method, purified IMP-1;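 also: purified IMP-1 (1-70 nM) hydrolysing a reporter substrate, initial rates followed as absorbance change at 260, 300 or 482 nm in 50 mM HEPES pH 7.5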
MEASUREMENT CONTEXT: isolated MBL, competitive inhibition model
Would you kindly list Ki for each of these molecules?

Asked: So what does the record say about Ki for O=C(O)c1ccccc1CCn1c(-c2cccc(OCCN3CCOCC3)c2)n[nH]c1=S ?
Given back: > 100 µM

Asked: Same read-out for CCCCCCn1c(-c2ccccc2)n[nH]c1=S ?
Given back: > 100 µM

Asked: Would you mind doing Sc1nnc(-c2ccccc2)n1Cc1ccccc1 as well?
Given back: 1 to 10 µM

Asked: Another molecule to look at: O=C(O)c1ccccc1CCn1c(-c2ccc3ncccc3c2)n[nH]c1=S
Given back: > 100 µM

Asked: Next molecule: O=C(O)c1ccccc1CCn1c(-c2ccc3ccccc3n2)n[nH]c1=S
Given back: > 100 µM

Asked: Moving on to Oc1ccc(CCn2c(-c3ccccc3)n[nH]c2=S)cc1
Given back: 10 to 100 µM

Asked: Record: O=C(O)CC1(Cn2c(-c3ccccc3)n[nH]c2=S)CCCCC1
Given back: > 100 µM

----------
MEASUREMENT TARGET: VIM-4 (Pseudomonas aeruginosa, UniProt Q8KRJ3)
PROTOCOL DESCRIPTION: Enzymatic assay for determination of inhibition constants, reporter substrate method, purified VIM-4;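 also: purified VIM-4 (1-70 nM) in 50 mM HEPES pH 7.5, reporter substrate hydrolysis rate tracked by absorbance change (nitrocefin 482 nm, imipenem or meropenem 300 nm, cefotaxime 260 nm)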
Assay type: biochemical
MEASUREMENT CONTEXT: at 100 μM (maximal tested concentration)
OBSERVABLE: % inhibition VIM-4
Just so you know, I need the unit written after the number.

Asked: Enter reported % inhibition VIM-4 observed with VIM-4 (Pseudomonas aeruginosa, UniProt Q8KRJ3) for O=C(O)C1CCCC(n2c(-c3ccccc3)n[nH]c2=S)C1 (stereo not shown) [Compound 47]
Given back: 70% at 100 μM

Asked: Note, next up: Cn1cccc1-c1n[nH]c(=S)n1CCc1ccccc1C(=O)O [Compound 44]
Given back: 80% at 100 μM

Asked: Now try O=C(O)CC1(Cn2c(-c3ccccc3)n[nH]c2=S)CCCCC1 [Compound 17] .
Given back: 60% at 100 μM

Asked: Check COc1ccc(O)c(-c2n[nH]c(=S)n2CCc2ccccc2C(=O)O)c1 [Compound 4] too.
Given back: 80% at 100 μM

----------
OBSERVABLE: melting point

Asked: Consider the compound shown here: O=C(O)c1ccccc1CCn1c(-c2ccc(Cl)s2)n[nH]c1=S What is its recorded melting point?
Given back: 240 to 241 °C

Asked: Further, for O=C(O)CC1(Cn2c(-c3ccccc3)n[nH]c2=S)CCCCC1 ?
Given back: 80 to 81 °C

Asked: Same lookup for O=C(O)C1CCCC(n2c(-c3ccccc3)n[nH]c2=S)C1 (centres unmarked) , please.
Given back: 234 to 235 °C

Asked: Now this one: CC(C)(C)OC(=O)NC(CCCn1c(-c2ccccc2)n[nH]c1=S)C(=O)O (centres unmarked)
Given back: 105 to 106 °C

Asked: Likewise for O=C(O)c1ccccc1CCn1c(-c2ccccc2)n[nH]c1=S ?
Given back: 220 to 221 °C

----------
MEASUREMENT TARGET: VIM-1 (Pseudomonas aeruginosa, UniProt A0A0F7KYQ8)
PROTOCOL DESCRIPTION: Enzymatic assay for determination of inhibition constants, reporter substrate method, purified VIM-1;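 also: initial hydrolysis rates of a reporter β-lactam (imipenem, meropenem, cefotaxime or nitrocefin) followed by absorbance change, purified enzyme at 1–70 nM in 50 mM HEPES pH 7.5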
MEASUREMENT CONTEXT: isolated MBL, competitive inhibition model
Field: Ki. Provide a value for each of the molecules that follow.

Asked: What Ki value was documented for this molecule, O=C(O)c1ccccc1CCn1c(-c2ccccc2)n[nH]c1=S [Compound 1] ?
Given back: > 100 µM

Asked: Another molecule to check: S=c1[nH]nc(-c2ccccc2)n1CCSc1ccccc1 [Compound 70]
Given back: 1 to 10 µM

Asked: Do the same for O=[N+]([O-])c1ccc(CSCCn2c(-c3ccccc3)n[nH]c2=S)cc1 [Compound 74] please
Given back: < 1 µM

Asked: What do you have for COc1ccc(O)c(-c2n[nH]c(=S)n2Cc2ccccc2)c1 [Compound 7] ?
Given back: < 1 µM

Asked: What do you get for O=C(O)CCCCn1c(-c2ccccc2)n[nH]c1=S [Compound 15] ?
Given back: > 100 µM

----------
MEASUREMENT TARGET: VIM-1 (Pseudomonas aeruginosa)
PROTOCOL DESCRIPTION: Enzymatic assay for determination of inhibition constants, reporter substrate method, purified VIM-1
MEASUREMENT CONTEXT: isolated MBL, competitive inhibition model
pKi: −log10 of the molar value.
OBSERVABLE: pKi

Asked: Recorded pKi of O=C(O)C(CSCCn1c(-c2ccccc2)n[nH]c1=S)c1ccccc1 (stereo not drawn) , please.
Given back: > 6.00

Asked: And for Fc1ccccc1CSCCn1c(-c2ccccc2)n[nH]c1=S ?
Given back: > 6.00

Asked: Try this compound next: O=C(O)c1ccccc1CCn1c(-c2cccs2)n[nH]c1=S
Given back: < 4.00

Asked: Record: O=[N+]([O-])c1ccc(O)c(CSCCn2c(-c3ccccc3)n[nH]c2=S)c1
Given back: > 6.00

Asked: Input S=c1[nH]nc(-c2ccccc2)n1CCSCc1ccccc1
Given back: > 6.00

Asked: Now this one: O=C(O)CCCn1c(-c2cccc(-c3ccccc3)c2)n[nH]c1=S
Given back: < 4.00

Asked: Next record, please: O=C(O)CC(Cn1c(-c2ccccc2)n[nH]c1=S)c1ccc(Cl)cc1 (stereo not drawn)
Given back: < 4.00

Asked: Check O=C(O)CCCn1c(-c2ccc3ccccc3c2)n[nH]c1=S too.
Given back: < 4.00

Asked: Quick one: COc1ccc(O)c(-c2n[nH]c(=S)n2CCc2ccccc2C(=O)O)c1
Given back: < 4.00

----------
MEASUREMENT TARGET: NDM-1 (Klebsiella pneumoniae)
PROTOCOL DESCRIPTION: Enzymatic assay for determination of inhibition constants, reporter substrate method, purified NDM-1
MEASUREMENT CONTEXT: isolated MBL, competitive inhibition model
pKi: −log10 of the molar value.
OBSERVABLE: pKi

Asked: Could you tell me which pKi is on file for COc1ccc(O)c(-c2n[nH]c(=S)n2CCc2ccccc2)c1 ?
Given back: 5.00 to 6.00

Asked: Also need Sc1nnc(-c2ccccc2)n1Cc1ccccc1 , thanks.
Given back: < 4.00

Asked: Moving on to the next compound: S=c1[nH]nc(-c2ccccc2)n1[C@@H]1C[C@H]1c1ccccc1
Given back: 4.00 to 5.00

Asked: What about this compound? S=c1[nH]nc(-c2ccccc2)n1CCSCc1ccccc1
Given back: 5.00 to 6.00

Asked: Record: S=c1[nH]nc(-c2ccccc2)n1CCCSc1ccccc1
Given back: < 4.00

Asked: Proceed to O=C(O)c1ccccc1CCn1c(-c2ccsc2)n[nH]c1=S
Given back: < 4.00

Asked: Entry Cc1nnsc1-c1n[nH]c(=S)n1CCc1ccccc1C(=O)O please
Given back: < 4.00

Asked: Same thing, different compound: O=C(O)c1ccccc1CNn1c(-c2cccc(-c3ccccc3)c2)n[nH]c1=S
Given back: < 4.00

Asked: Now try Cc1ccccc1-c1n[nH]c(=S)n1CCc1ccccc1C(=O)O .
Given back: < 4.00

Asked: What about Fc1ccccc1CSCCn1c(-c2ccccc2)n[nH]c1=S ?
Given back: 4.00 to 5.00

----------
Exercise: for every item that follows, state its recorded Ki.
MEASUREMENT TARGET: NDM-1 (Klebsiella pneumoniae, UniProt C7C422)
Sequence (C7C422 29-270, looked up, species assumed): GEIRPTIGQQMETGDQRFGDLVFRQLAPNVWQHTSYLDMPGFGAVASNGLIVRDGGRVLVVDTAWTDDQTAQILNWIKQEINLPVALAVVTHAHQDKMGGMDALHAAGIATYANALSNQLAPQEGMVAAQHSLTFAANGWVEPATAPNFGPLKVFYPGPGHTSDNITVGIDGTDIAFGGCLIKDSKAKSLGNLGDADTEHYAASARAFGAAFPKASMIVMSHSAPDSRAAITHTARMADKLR
PROTOCOL DESCRIPTION: Enzymatic assay for determination of inhibition constants, reporter substrate method, purified NDM-1;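 also: purified enzyme activity followed as absorbance change from reporter substrate hydrolysis on a UV-Vis spectrophotometer or plate reader, 50 mM HEPES pH 7.5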
MEASUREMENT CONTEXT: isolated MBL, competitive inhibition model

Asked: Tell me reported Ki for O=C(O)c1ccccc1CCn1c(-c2ccco2)n[nH]c1=S , tested with NDM-1 (Klebsiella pneumoniae, UniProt C7C422).
Given back: > 100 µM

Asked: Another compound to check: Cn1cccc1-c1n[nH]c(=S)n1CCc1ccccc1C(=O)O
Given back: > 100 µM

Asked: Now try Cc1ccccc1-c1n[nH]c(=S)n1CCSCc1ccccc1 .
Given back: 10 to 100 µM

Asked: One more compound: S=c1[nH]nc(-c2ccccc2)n1CCc1ccc(OCc2ccccc2)cc1
Given back: > 100 µM

Asked: Again, but for Oc1ccc(CCn2c(-c3cccc(-c4ccccc4)c3)n[nH]c2=S)c(O)c1
Given back: 10 to 100 µM

Asked: Try O=C(O)C(CSCCn1c(-c2ccccc2)n[nH]c1=S)c1ccccc1 (centres unmarked) next.
Given back: 1 to 10 µM

Asked: Can you handle Oc1ccc(CCn2c(-c3ccccc3)n[nH]c2=S)c(O)c1 next?
Given back: 10 to 100 µM

Asked: Also O=C(O)c1ccccc1CCn1c(-c2cccs2)n[nH]c1=S , if possible.
Given back: > 100 µM

Asked: // next record O=C(O)C1CCCC(n2c(-c3ccccc3)n[nH]c2=S)C1 (centres unmarked)
Given back: > 100 µM

Asked: Another: O=C(O)CSCCn1c(-c2ccccc2)n[nH]c1=S
Given back: > 100 µM

Asked: # iterate: CC(C)(C)OC(=O)NC(CCCn1c(-c2ccccc2)n[nH]c1=S)C(=O)O (centres unmarked)
Given back: > 100 µM

Asked: What would you report for COc1ccc(O)c(-c2n[nH]c(=S)n2CCCCC(=O)O)c1 ?
Given back: > 100 µM

Asked: Would you kindly repeat that for [N-]=[N+]=NCCn1c(-c2ccccc2)n[nH]c1=S ?
Given back: > 100 µM

Asked: Now give it for O=C(O)c1ccccc1CCn1c(-c2ccc(Cl)s2)n[nH]c1=S too.
Given back: > 100 µM

Asked: Same question for Oc1ccc(CCn2c(-c3ccccc3-c3ccccc3)n[nH]c2=S)c(O)c1 please.
Given back: 10 to 100 µM

Asked: // same read-out, input: O=C(O)c1ccc(Cn2c(-c3ccccc3)n[nH]c2=S)cc1
Given back: > 100 µM

Asked: Follow-up entry: COc1ccc(O)c(-c2n[nH]c(=S)n2CCCC(=O)O)c1
Given back: > 100 µM

Asked: Repeat with Cc1ccccc1-c1n[nH]c(=S)n1CCc1ccccc1
Given back: > 100 µM

Asked: Entry to check: O=C(O)CCCCCCCn1c(-c2ccccc2)n[nH]c1=S
Given back: > 100 µM

Asked: Now consider O=C(O)c1ccccc1CNn1c(-c2ccc3ccccc3c2)n[nH]c1=S .
Given back: > 100 µM
